- protocol notes: clinical
- condition description: human, in vivo, iv, 600 mg/m^2, mean concentration at the end of infusion
assay endpoint: level at 1 h (µg/mL)
Entry rule: numbers only, all in µg/mL.

// CC(C)[C@H]1C(=O)N[C@@H](CCCN=C(N)N)C(=O)NCC(=O)N[C@@H](CC(=O)O)C(=O)N[C@H](Cc2ccccc2)C(=O)N1C [Cilengitide, Cyclo-l-Arg-l-Asp-d-Phe-N (Me) l-Val] : level at 1 h value = 75.4

----------
- protocol notes: clinical
- condition description: human, in vivo, iv, t1/2, Geomean
assay endpoint: half-life

The molecule listed as CC(C)[C@H]1C(=O)N[C@@H](CCCN=C(N)N)C(=O)NCC(=O)N[C@@H](CC(=O)O)C(=O)N[C@H](Cc2ccccc2)C(=O)N1C [Cilengitide, Cyclo-l-Arg-l-Asp-d-Phe-N (Me) l-Val] has a reported half-life of ~3 h
